tested on: PfAP2-LT AP2 domain (GST-tagged); experiment: gcPBM binding intensity (ln(normalized median fluorescence intensity)); higher = stronger DNA binding
Over roughly 25,000 sequences, “ln(normalized median fluorescence intensity)” has its median near 8.9; the highest 2% begin near 10. Only a selection was taken, and the highest values are over-represented in it overall.
Lab note: compare gcPBM binding intensity (ln) against 9. Equal or greater, write y. Smaller, write n.

Worked set:
* AATTAAATTATAAGCACACACATATATATATATATA [CACACA_site3351] | y
* ATATTTTTATTTAAACGTACATACACGTTGAAAAGA [XGTACX_site4567] | n
* TATTGTTTTAAAGAGACATGCAATATATATTATTCC [TGCATGCA_site752] | n

Now consider the entry below.
(Q) Quick check, gcPBM binding intensity (ln) >= 9? AAAAAAAAAAAAAAGAGTACATTTATTTATATATCT [XGTACX_site2381]
(A) n

* * *

test system: PfAP2-LT AP2 domain (GST-tagged); experiment: gcPBM binding intensity (ln(normalized median fluorescence intensity)); higher = stronger DNA binding
In all, about 25,000 sequences were measured (“ln(normalized median fluorescence intensity)”: median about 8.9, highest 2% from about 10 on). The entries come from a sample that favours the highest values as a whole.
Reported gcPBM binding intensity (ln) values for a set of sequences

Field: example entries. Status: answers known.
- AAAAAAAAAAAAAACACACACATATAAATATAAATA [CACACA_site6972]: 9.37
- ATAATATATTTATGTTGTACAAGGAAAATTTTGAAA [XGTACX_site3472]: 8.76
- ACATTCAATAAACGTCGTACACTTTCCTTTTTATGA [XGTACX_site3274]: 8.86
- TATTGTAAGAAAGGCACACAGATAAAATTATTATAT [CACACA_site2921]: 8.83
- TTTATTATCTTATTCACACACATATATAAATATGTA [CACACA_site7369]: 9.06

Given item GGAAAAACCATTCGCACACACACATAATATATAATA [CACACA_site1424] , the value recorded as its gcPBM binding intensity (ln) is 9.71

Given item TGAACTCACGAGCACACACACACATATATATATATA [CACACA_site8248] , the value recorded as its gcPBM binding intensity (ln) is 10.3

Given item `GGAATATTAATAAGAGTGCATTTTGTATTCAATATG` , the value recorded as its gcPBM binding intensity (ln) is 8.66

* * *

Reported gcPBM binding intensity (ln) values for a set of sequences
tested on: PfAP2-LT AP2 domain (GST-tagged); assay: gcPBM binding intensity (ln(normalized median fluorescence intensity)); higher = stronger DNA binding
In all, about 25,000 sequences were measured (“ln(normalized median fluorescence intensity)”: median about 8.9, highest 2% from about 10 on). This is one part of a sample in which the highest values are shown more often than they occur.
// no unit, no text: just the number

Field: example entries. Status: answers known.
- GATCCATTATTGATCCGTACTTATTCATGTTATATA [XGTACX_site5946]: 8.91
- TATATAAATAGACACACACACACATATAAATAAATA [CACACA_site7855]: 10
- CATATACATAGACACACACACACATAAATAAATATA [CACACA_site6749]: 9.91
- TGAATAAATATATATACACACATATATGTATATATT [CACACA_site1642]: 8.95
- TATATATATATATATATATATATATATATATGTATA [TGCATGCA_negctrl_site17]: 9.8

Given item TATTATTATTTTTTATGTACTAACGACAAAAATATT [XGTACX_site252] , the value recorded as its gcPBM binding intensity (ln) is 8.48

Given item TATATATATATATATATATATATATATGTGTATGTA [TGCATGCA_negctrl_site255] , the value recorded as its gcPBM binding intensity (ln) is 10.2

Given item ATAAATAAAGGACACACACACACACTAGAAAAAAAA [CACACA_site5450] , the value recorded as its gcPBM binding intensity (ln) is 10.2

Given item CAAAACATTTTATCTACACACATATATAAATAAATA [CACACA_site3220] , the value recorded as its gcPBM binding intensity (ln) is 8.88

* * *

tested on: PfAP2-LT AP2 domain (GST-tagged); experiment: gcPBM binding intensity (ln(normalized median fluorescence intensity)); higher = stronger DNA binding
Whole data set: some 25,000 sequences, median “ln(normalized median fluorescence intensity)” near 8.9, cut for the highest 2% near 10. The sample as a whole holds a higher share of the highest values than the screen did.
In this scheme, each record receives a class according to its gcPBM binding intensity (ln); the ranges are class A (below 9), class B (9 to below 10), class C (10 or more)

Worked set:
- TATACAGACAGACACACACACATATATATATATATA [CACACA_site1734]: class C
- AAAAAATAATAATAAAATGAATAGATATGTATTTAT [TGCATGCA_negctrl_site210]: class A
- CATATACATACACATACACACATACAGACATACACA [CACACA_site6919]: class B
- GTAAGAAACGGACACACACACATATATATATATATA [CACACA_site4593]: class C
- AAAAAAAAAAAAAAAACACACATTTGAAGAAAAAAA [CACACA_site7389]: class A
- TAAACAGACATATAAACACACATATAAACAGACATA [CACACA_site7214]: class B

Now consider the entry below.
(Q) Assign a bin to TTTTTTTCTTGTTTTAAATAATATACTGGAAAAAAA [CACACA_negctrl_site585]
(A) class A

* * *

Reported gcPBM binding intensity (ln) values for a set of sequences
tested on: PfAP2-LT AP2 domain (GST-tagged); test: gcPBM binding intensity (ln(normalized median fluorescence intensity)); higher = stronger DNA binding
In all, about 25,000 sequences were measured (“ln(normalized median fluorescence intensity)”: median about 8.9, highest 2% from about 10 on). The list comes from a sample in which the highest values are over-represented; it also holds close analogues and randomly drawn sequences.
// no unit, no text: just the number

• AAGGATATAACATACACACACACACCGATATATATA [CACACA_site6136] = 10
• CAAAATAATATATATACACACACACCGATATATATA [CACACA_site8082] = 9.81
• AACATATATAAATACACACACATATATATATGAAAT [CACACA_site4312] = 9.51
• ATGCAAACTAAAAGACGTACAGAAAAGTATCATACT [XGTACX_site8766] = 9.02
• AAAATACATGGACACACACACACACCGATATATATA [CACACA_site5885] = 10.4
• AATATAAATAAAAACACACACACACCGATATATATA [CACACA_site5283] = 10.2
• AAAAAAAAAAGAATAGCACACACACCGATATAAATA [CACACA_site8111] = 9.71
• ATAGTTACACGCCAAAAAAAAAAAAAAAAAAAAAAA [CACACA_negctrl_site1133] = 8.21

Given item AATAAAAAGGAACACACACACACACCGATATATATA [CACACA_site5895] , the value recorded as its gcPBM binding intensity (ln) is 10.1

* * *

tested on: PfAP2-LT AP2 domain (GST-tagged); experiment: gcPBM binding intensity (ln(normalized median fluorescence intensity)); higher = stronger DNA binding
Whole data set: some 25,000 sequences, median “ln(normalized median fluorescence intensity)” near 8.9, cut for the highest 2% near 10. Many of the other results were omitted from the sample, so the highest values are more common in it than they were.
Lab note: compare gcPBM binding intensity (ln) against 10. Equal or greater, write yes. Smaller, write no.

- ATATATATATATATATGTACTCATATTTTATTATTT [XGTACX_site898]: no
- AGTATACACAGACACACACACACATATATATATATA [CACACA_site8510]: yes
- TACACAAGCGGACACACACACATATATATATATATA [CACACA_site4832]: yes

(Q) Quick check, gcPBM binding intensity (ln) >= 10? AGGGAATAATATTAATGTACATATATGAACTTGTTT [XGTACX_site6089]
(A) no

(Q) Quick check, gcPBM binding intensity (ln) >= 10? TTTGTCATTTTATTATGTACTCAGCATATAGGGGGG [XGTACX_site505]
(A) yes

* * *

tested on: PfAP2-LT AP2 domain (GST-tagged); experiment: gcPBM binding intensity (ln(normalized median fluorescence intensity)); higher = stronger DNA binding
Whole data set: some 25,000 sequences, median “ln(normalized median fluorescence intensity)” near 8.9, cut for the highest 2% near 10. The full list was thinned out, with the highest values kept by preference.
Lab note: compare gcPBM binding intensity (ln) against 9. Equal or greater, write yes (1). Smaller, write no (0).

Worked set:
- CATAAATCAGCCATAACACACATACATATATACATA [CACACA_site8025]: yes (1)
- ATTTATATATATGTATGTACGTATGTGTGTATATGT [XGTACX_site7587]: yes (1)
- AAACGTGCGTATATGTGTACGCATATATATATATAT [XGTACX_site5252]: yes (1)

(Q) Quick check, gcPBM binding intensity (ln) >= 9? AAAATTATATGTAATTGTACGGAATTATATACGCAA [XGTACX_site2048]
(A) no (0)

(Q) Quick check, gcPBM binding intensity (ln) >= 9? TTGGTCTTTTAAAAAAGTACAAAAAAAAAAAAAAAA [XGTACX_site1665]
(A) no (0)
